# ASSAY NAME: Cytotoxicity against mouse RAW264.7 cells at 100 uM after 48 hrs by MTT assay
# Type: cell-based
# EXPERIMENTAL CONDITIONS: read-out: INH
We label by threshold. Values of cytotoxicity at 48 h, 100 µM strictly beneath 40% are label 1. Values of 40% and up are label 0.

INSERT INTO results (record_smiles, discrete_label) VALUES
  ('CC(=O)c1ccc(NC(=S)NC2CCN(CCn3c(=O)ccc4ncc(F)cc43)CC2)cc1', 'label 1'),
  ('O=C(NCc1ccc(Cl)cc1)NC1CCN(CCn2c(=O)ccc3ncc(F)cc32)CC1', 'label 0'),
  ('COc1cnc2ccc(=O)n(CCN3CCC(NC(=O)Nc4ccccc4)CC3)c2c1', 'label 0'),
  ('O=C(Nc1ccc(Cl)cc1)NC1CCN(CCn2c(=O)ccc3ncc(F)cc32)CC1', 'label 1'),
  ('CO[C@@H]1[C@@H](OC(N)=O)[C@@H](O)[C@H](Oc2ccc3c(O)c(NC(=O)c4ccc(O)c(CC=C(C)C)c4)c(=O)oc3c2C)OC1(C)C', 'label 1'),
  ('COc1ccc(NC(=S)NC2CCN(CCn3c(=O)ccc4ncc(OC)cc43)CC2)cc1', 'label 0'),
  ('COc1ccc(NC(=O)NC2CCN(CCn3c(=O)ccc4ncc(OC)cc43)CC2)cc1', 'label 1'),
  ('COc1ccc(CNC(=S)NC2CCN(CCn3c(=O)ccc4ncc(OC)cc43)CC2)cc1', 'label 1');

====

The following compounds are listed with their measured selectivity ratio values.
# ASSAY NAME: Selectivity index, ratio of CC50 for mouse RAW264.7 cells to MIC for Mycobacterium tuberculosis H37Rv
# Format: toxicity
# EXPERIMENTAL CONDITIONS: read-out: Selectivity Index
OBSERVATION TYPE: selectivity ratio

INSERT INTO measurements (record_smiles, measured_result) VALUES
  ('COc1cnc2ccc(=O)n(CCN3CCC(NC(=O)Nc4ccccc4)CC3)c2c1', '> 6.74'),
  ('O=C(NCc1ccccc1)NC1CCN(CCn2c(=O)ccc3ncc(F)cc32)CC1', '> 13.6'),
  ('COc1cnc2ccc(=O)n(CCN3CCC(NC(=O)Nc4ccc([N+](=O)[O-])cc4)CC3)c2c1', '> 25.4'),
  ('COc1ccc(CNC(=O)NC2CCN(CCn3c(=O)ccc4ncc(OC)cc43)CC2)cc1', '> 29.9'),
  ('O=c1ccc2ncc(F)cc2n1CCN1CCC(NC(=S)Nc2ccc(Cl)cc2)CC1', '> 11.7'),
  ('O=c1ccc2ncc(F)cc2n1CCN1CCC(NC(=S)Nc2ccccc2)CC1', '> 54.6'),
  ('O=C(NCc1ccc(Cl)cc1)NC1CCN(CCn2c(=O)ccc3ncc(F)cc32)CC1', '> 27'),
  ('O=C(Nc1ccccc1)NC1CCN(CCn2c(=O)ccc3ncc(F)cc32)CC1', '> 52.6'),
  ('COc1cnc2ccc(=O)n(CCN3CCC(NC(=S)Nc4ccc(F)cc4)CC3)c2c1', '> 29.2'),
  ('COc1cnc2ccc(=O)n(CCN3CCC(NC(=O)Nc4ccc(Cl)cc4)CC3)c2c1', '> 54'),
  ('COc1cnc2ccc(=O)n(CCN3CCC(NC(=S)Nc4ccc(C)cc4)CC3)c2c1', '> 28.9'),
  ('O=c1ccc2ncc(F)cc2n1CCN1CCC(NC(=S)NCc2ccc(Cl)cc2)CC1', '> 61'),
  ('COc1ccc(NC(=S)NC2CCN(CCn3c(=O)ccc4ncc(OC)cc43)CC2)cc1', '> 7.58'),
  ('O=C(Nc1ccc(F)cc1)NC1CCN(CCn2c(=O)ccc3ncc(F)cc32)CC1', '> 27.5'),
  ('Cc1ccc(NC(=O)NC2CCN(CCn3c(=O)ccc4ncc(F)cc43)CC2)cc1', '> 54.3'),
  ('COc1ccc(NC(=O)NC2CCN(CCn3c(=O)ccc4ncc(F)cc43)CC2)cc1', '> 30.9'),
  ('COc1cnc2ccc(=O)n(CCN3CCC(NC(=S)NCc4ccccc4)CC3)c2c1', '> 13.3'),
  ('O=c1ccc2ncc(F)cc2n1CCN1CCC(NC(=S)Nc2ccc(F)cc2)CC1', '> 14.7'),
  ('COc1ccc(NC(=O)NC2CCN(CCn3c(=O)ccc4ncc(OC)cc43)CC2)cc1', '> 26.4'),
  ('COc1ccc(CNC(=S)NC2CCN(CCn3c(=O)ccc4ncc(OC)cc43)CC2)cc1', '> 7.71');

====

# ASSAY NAME: Cytotoxicity against mouse RAW264.7 cells at 100 uM after 48 hrs by MTT assay
# Assay type: cell-based
# EXPERIMENTAL CONDITIONS: read-out: INH
Doc: threshold 40% (exclusive). Items with cytotoxicity at 48 h, 100 µM beneath it return Criterion met; others return Criterion not met.

INSERT INTO measurements (record_smiles, discrete_label) VALUES
  ('O=c1ccc2ncc(F)cc2n1CCN1CCC(NC(=S)Nc2ccc(F)cc2)CC1', 'Criterion met'),
  ('COc1cnc2ccc(=O)n(CCN3CCC(NC(=O)Nc4ccc([N+](=O)[O-])cc4)CC3)c2c1', 'Criterion met'),
  ('COc1cnc2ccc(=O)n(CCN3CCC(NC(=S)Nc4ccc(Cl)cc4)CC3)c2c1', 'Criterion met'),
  ('COc1cnc2ccc(=O)n(CCN3CCC(NC(=S)NCc4ccccc4)CC3)c2c1', 'Criterion met'),
  ('O=C(Nc1ccccc1)NC1CCN(CCn2c(=O)ccc3ncc(F)cc32)CC1', 'Criterion not met'),
  ('COc1cnc2ccc(=O)n(CCN3CCC(NC(=S)Nc4ccc(F)cc4)CC3)c2c1', 'Criterion met'),
  ('COc1cnc2ccc(=O)n(CCN3CCC(NC(=O)Nc4ccc(F)cc4)CC3)c2c1', 'Criterion met'),
  ('COc1ccc(CNC(=O)NC2CCN(CCn3c(=O)ccc4ncc(F)cc43)CC2)cc1', 'Criterion met'),
  ('O=c1ccc2ncc(F)cc2n1CCN1CCC(NC(=S)NCc2ccc(Cl)cc2)CC1', 'Criterion not met'),
  ('COc1cnc2ccc(=O)n(CCN3CCC(NC(=S)Nc4ccccc4)CC3)c2c1', 'Criterion met');

====

Each record here notes measured selectivity ratio.
# ASSAY NAME: Selectivity index, ratio of CC50 for mouse RAW264.7 cells to MIC for Mycobacterium tuberculosis H37Rv
# Format: toxicity
# EXPERIMENTAL CONDITIONS: read-out: Selectivity Index
OBSERVATION TYPE: selectivity ratio

INSERT INTO measurements (record_smiles, measured_result) VALUES
  ('Cc1ccc(NC(=S)NC2CCN(CCn3c(=O)ccc4ncc(F)cc43)CC2)cc1', '> 28.2'),
  ('O=c1ccc2ncc(F)cc2n1CCN1CCC(NC(=S)NCc2ccccc2)CC1', '> 14.1'),
  ('COc1cnc2ccc(=O)n(CCN3CCC(NC(=S)NCc4ccc(Cl)cc4)CC3)c2c1', '> 62.5'),
  ('COc1cnc2ccc(=O)n(CCN3CCC(NC(=S)Nc4ccc([N+](=O)[O-])cc4)CC3)c2c1', '> 15.5'),
  ('COc1cnc2ccc(=O)n(CCN3CCC(NC(=O)Nc4ccc(C(C)=O)cc4)CC3)c2c1', '> 15.2'),
  ('O=C(Nc1ccc(Cl)cc1)NC1CCN(CCn2c(=O)ccc3ncc(F)cc32)CC1', '> 77.5'),
  ('COc1ccc(CNC(=O)NC2CCN(CCn3c(=O)ccc4ncc(F)cc43)CC2)cc1', '> 52.9'),
  ('CC(=O)c1ccc(NC(=O)NC2CCN(CCn3c(=O)ccc4ncc(F)cc43)CC2)cc1', '> 34'),
  ('COc1ccc(CNC(=S)NC2CCN(CCn3c(=O)ccc4ncc(F)cc43)CC2)cc1', '> 60.2'),
  ('COc1cnc2ccc(=O)n(CCN3CCC(NC(=S)Nc4ccc(Cl)cc4)CC3)c2c1', '> 60.6'),
  ('O=c1ccc2ncc(F)cc2n1CCN1CCC(NC(=S)Nc2ccc([N+](=O)[O-])cc2)CC1', '> 110');

====

inhibition overview
# Tested on: Mycobacterium tuberculosis
# ASSAY NAME: Inhibition of Mycobacterium tuberculosis GyrA/GyrB using relaxed pBR322 as substrate at 0.97 uM after 30 mins by DNA supercoiling assay
OBSERVATION TYPE: inhibition

INSERT INTO assay_data (record_smiles, measured_result) VALUES
  ('COc1cnc2ccc(=O)n(CCN3CCC(NC(=S)NCc4ccc(Cl)cc4)CC3)c2c1', '> 95%'),
  ('COc1ccc(NC(=S)NC2CCN(CCn3c(=O)ccc4ncc(OC)cc43)CC2)cc1', '> 79%'),
  ('Cc1ccc(NC(=O)NC2CCN(CCn3c(=O)ccc4ncc(F)cc43)CC2)cc1', '> 73%'),
  ('COc1cnc2ccc(=O)n(CCN3CCC(NC(=S)Nc4ccc(Cl)cc4)CC3)c2c1', '> 76%'),
  ('O=C(Nc1ccc(Cl)cc1)NC1CCN(CCn2c(=O)ccc3ncc(F)cc32)CC1', '> 69%'),
  ('COc1c(N2C[C@@H]3CCCN[C@@H]3C2)c(F)cc2c(=O)c(C(=O)O)cn(C3CC3)c12', '> 60%'),
  ('O=c1ccc2ncc(F)cc2n1CCN1CCC(NC(=S)Nc2ccc(Cl)cc2)CC1', '> 62%'),
  ('O=c1ccc2ncc(F)cc2n1CCN1CCC(NC(=S)Nc2ccc(F)cc2)CC1', '> 61%'),
  ('Cc1ccc(NC(=S)NC2CCN(CCn3c(=O)ccc4ncc(F)cc43)CC2)cc1', '> 66%'),
  ('COc1cnc2ccc(=O)n(CCN3CCC(NC(=O)Nc4ccc([N+](=O)[O-])cc4)CC3)c2c1', '> 84%'),
  ('COc1ccc(CNC(=O)NC2CCN(CCn3c(=O)ccc4ncc(F)cc43)CC2)cc1', '> 93%'),
  ('COc1cnc2ccc(=O)n(CCN3CCC(NC(=S)Nc4ccc(F)cc4)CC3)c2c1', '> 75%'),
  ('COc1cnc2ccc(=O)n(CCN3CCC(NC(=S)Nc4ccccc4)CC3)c2c1', '> 74%'),
  ('O=c1ccc2ncc(F)cc2n1CCN1CCC(NC(=S)NCc2ccccc2)CC1', '> 88%'),
  ('O=C(Nc1ccc(F)cc1)NC1CCN(CCn2c(=O)ccc3ncc(F)cc32)CC1', '> 68%'),
  ('COc1cnc2ccc(=O)n(CCN3CCC(NC(=S)Nc4ccc([N+](=O)[O-])cc4)CC3)c2c1', '> 77%'),
  ('COc1ccc(CNC(=O)NC2CCN(CCn3c(=O)ccc4ncc(OC)cc43)CC2)cc1', '> 99%'),
  ('COc1cnc2ccc(=O)n(CCN3CCC(NC(=S)Nc4ccc(C)cc4)CC3)c2c1', '> 80%'),
  ('COc1ccc(CNC(=S)NC2CCN(CCn3c(=O)ccc4ncc(F)cc43)CC2)cc1', '> 90%');

FYI, the data here is from ChEMBL document CHEMBL3351599.
